Each recorded value in this set is attributed to PubChem BioAssay (NCI).

- Test system: SK-OV-3 ovarian
- experimentDescription: NCI tumour cell line growth inhibition, 48 h

{"compound": "CC(=O)c1c(Nc2ccc(F)c(F)c2F)[nH]c2c(F)cc(F)cc2c1=O", "TGI": "3.24 µM"}
{"compound": "Cc1ccc(S(=O)c2ccc([N+](=O)[O-])c3nonc23)cc1 (stereo not given)", "TGI": "34.3 µM"}
{"compound": "COc1cccc(Nc2nc3c([nH]2)c(=O)n(C)c(=O)n3C)c1", "TGI": "> 10 µM"}
{"compound": "CCOC(=O)c1c(-c2ccc(OC)cc2)c(C#N)c(=S)n(C2OC(CO)C(O)C(O)C2O)c1C (stereo not given)", "TGI": "> 100 µM"}
{"compound": "CC[C@H](C)[C@H](NC(=O)N[C@@H](C)c1ccccc1)C(=O)N(C)[C@H](C[C@@H](OC(C)=O)c1nc(C(=O)N[C@@H](Cc2ccccc2)C[C@H](C)C(=O)OC)cs1)C(C)C", "TGI": "> 100 µM"}

---

- Test system: NCI-H23 lung
- experimentDescription: NCI tumour cell line growth inhibition, 48 h
Parameter: TGI. Scope: all listed entries.
assayEndpoint: TGI

{"structureAsSmiles": "C[C@@](Br)(C(=O)O)[C@H](Br)C(=O)O", "assayEndpoint": "TGI", "valueReported": "> 100 µM"}
{"structureAsSmiles": "Cc1ccc(S(=O)(=O)N2CCc3cc(O)c([N+](=O)[O-])cc32)cc1", "assayEndpoint": "TGI", "valueReported": "> 100 µM"}
{"structureAsSmiles": "Cn1c2ccccc2c2c3c(=O)[nH][nH]c(=O)c3c3c4ccccc4n(C)c3c21", "assayEndpoint": "TGI", "valueReported": "> 100 µM"}
{"structureAsSmiles": "O=c1/c(=C/c2ccc3c(c2)OCO3)sc2nnc(Cc3ccccc3)n12", "assayEndpoint": "TGI", "valueReported": "> 100 µM"}
{"structureAsSmiles": "O=C(/C(=N/Nc1cn[nH]c(=O)c1Cl)c1ccccc1)c1ccccc1", "assayEndpoint": "TGI", "valueReported": "66.6 µM"}

---

- Tested on: SK-MEL-5 melanoma
- experimentDescription: NCI tumour cell line growth inhibition, 48 h
assayEndpoint: TGI (µM)

{"compound": "Cc1nn(C(=O)c2ccccc2O)c2c1C(c1ccc([N+](=O)[O-])cc1)SC(N)=N2 (stereo not given)", "assayEndpoint": "TGI", "unitSpec": "µM", "comparator": ">", "valueReported": 10}
{"compound": "COC(=O)C1=C(C(=O)OC)N(C(C)C)[C@H]2C(C(=O)OC)=C(C(=O)OC)N(C(C)C)[C@@H]12", "assayEndpoint": "TGI", "unitSpec": "µM", "comparator": ">", "valueReported": 100}
{"compound": "Cn1c2ccccc2c2c3c(=O)[nH][nH]c(=O)c3c3c4ccccc4n(C)c3c21", "assayEndpoint": "TGI", "unitSpec": "µM", "comparator": ">", "valueReported": 100}
{"compound": "O=c1c2ccccc2c(=O)c2c1sc1c(=O)c3ccc(O)cc3c(=O)c12", "assayEndpoint": "TGI", "unitSpec": "µM", "comparator": "=", "valueReported": 0.256}
{"compound": "COC(=O)C1=C(C(=O)OC)C(C(=O)OC)C(C(=O)OC)C(C(=O)OC)(C(=O)OC)C(C(=O)OC)=C1C(=O)OC (stereo not given)", "assayEndpoint": "TGI", "unitSpec": "µM", "comparator": "=", "valueReported": 31.6}
{"compound": "CC(C)(C)[Si](C)(C)OC1CCOC1(O)c1ccccn1 (stereo not given)", "assayEndpoint": "TGI", "unitSpec": "µM", "comparator": ">", "valueReported": 100}
{"compound": "O=C(O[C@@H](/C=C/c1ccccc1)P1(=O)N(Cc2ccccc2)[C@@H]2CCCC[C@H]2N1Cc1ccccc1)c1ccccc1", "assayEndpoint": "TGI", "unitSpec": "µM", "comparator": "=", "valueReported": 4.16}
{"compound": "CC1(C)Oc2ccccc2N2O[C@@H]3C(=O)N(c4ccccc4)C(=O)[C@@H]3C21c1ccccc1 (stereo not given in full)", "assayEndpoint": "TGI", "unitSpec": "µM", "comparator": "=", "valueReported": 44.3}
{"compound": "CC(=O)N=S(NC(=O)c1ccc(C)cc1)C(Cl)(Cl)Cl (stereo not given)", "assayEndpoint": "TGI", "unitSpec": "µM", "comparator": "=", "valueReported": 77.9}
{"compound": "CN(C)CN1C(=O)/C(=N\\n2c(-c3ccncc3)n[nH]c2=S)c2ccccc21", "assayEndpoint": "TGI", "unitSpec": "µM", "comparator": ">", "valueReported": 100}
{"compound": "C/C(N=NC(=S)N1CCCCCC1)=C1\\C=CC=CN1O", "assayEndpoint": "TGI", "unitSpec": "µM", "comparator": "=", "valueReported": 35.3}
{"compound": "Nc1nc(Cl)cc(NCCCCCCNc2cc(Cl)nc(N)n2)n1", "assayEndpoint": "TGI", "unitSpec": "µM", "comparator": ">", "valueReported": 100}
{"compound": "CC[C@H](C)[C@H](NC(=O)N[C@@H](C)c1ccccc1)C(=O)N(C)[C@H](C[C@@H](OC(C)=O)c1nc(C(=O)N[C@@H](Cc2ccccc2)C[C@H](C)C(=O)OC)cs1)C(C)C", "assayEndpoint": "TGI", "unitSpec": "µM", "comparator": "=", "valueReported": 40.2}
{"compound": "COc1cc2c3cc1Oc1cc(ccc1O)C[C@@H]1c4c(cc(OC)c(O)c4Oc4ccc(cc4)C[C@@H]3[N+](C)(C)CC2)CC[N+]1(C)C", "assayEndpoint": "TGI", "unitSpec": "µM", "comparator": ">", "valueReported": 100}
{"compound": "COc1cccc(C2CC(=O)Nc3cc4c(cc32)CCC4)c1OC (stereo not given)", "assayEndpoint": "TGI", "unitSpec": "µM", "comparator": "=", "valueReported": 11.1}
{"compound": "CC(=O)Nc1ccc2c(c1)nc1c3ccccc3ccn21", "assayEndpoint": "TGI", "unitSpec": "µM", "comparator": ">", "valueReported": 100}
{"compound": "O/N=C/[C@H]1COC2(CCCCC2)O1", "assayEndpoint": "TGI", "unitSpec": "µM", "comparator": ">", "valueReported": 100}
{"compound": "O=C(/C=C/CC(O)(c1ccccc1)c1ccccc1)Nc1ccccc1Cl", "assayEndpoint": "TGI", "unitSpec": "µM", "comparator": ">", "valueReported": 100}
{"compound": "CCn1c(-c2nonc2N)nc2c(C#CC(C)(C)O)ncc(OC[C@@H]3CCCN3)c21", "assayEndpoint": "TGI", "unitSpec": "µM", "comparator": ">", "valueReported": 25}
{"compound": "C1=CC=C2NCCSCCNC3=CC=CC=CC3=NCCSCCN=C2C=C1", "assayEndpoint": "TGI", "unitSpec": "µM", "comparator": ">", "valueReported": 100}
{"compound": "N=C(N)SCC(=O)O", "assayEndpoint": "TGI", "unitSpec": "µM", "comparator": ">", "valueReported": 100}
{"compound": "Cc1nc2ccccc2n1Cc1ccc(NC(=S)Nc2ccccc2)cc1", "assayEndpoint": "TGI", "unitSpec": "µM", "comparator": "=", "valueReported": 56.6}
{"compound": "C=C(C[N+](C)(C)C)N/N=C/c1oc(-c2ccc(OC)c(OC)c2)c(-c2ccc(OC)c(OC)c2)c1[N+](=O)[O-]", "assayEndpoint": "TGI", "unitSpec": "µM", "comparator": "=", "valueReported": 31.7}
{"compound": "COc1ccc(-c2cn(-c3cc(OC)c(OC)c(OC)c3)c(=O)n2-c2ccccc2)cc1", "assayEndpoint": "TGI", "unitSpec": "µM", "comparator": ">", "valueReported": 100}
{"compound": "Cc1cc(Nc2cc(N3CCN(C)CC3)nc(C#Cc3ccccc3)n2)n[nH]1", "assayEndpoint": "TGI", "unitSpec": "µM", "comparator": "=", "valueReported": 16.5}
